Some compounds, each annotated with its measured pIC50.
Tested on: phospho-p90 RSK (RSK1 Thr359/Ser363) in A375 (Braf V600E) cells
Assay: Phospho-p90 RSK ELISA using A375 (Braf V600E) cells
Format: cell-based
Conditions: Homo sapiens, A-375, 2 hours compound treatment, read-out: Cellular Phospho-p90RSK IC50
pIC50: −log10 of the molar value.

Data request: Any idea what pIC50 was measured for Cc1cc(-c2n[nH]c3cc4c(cc23)CN([C@@H]2CN(C)C[C@H]2c2ccccc2)C(=O)N4)ccn1 (racemic) [Example 241] ?
Data returned: ≥ 6.60

Data request: Check Cc1cc(-c2n[nH]c3cc4c(cc23)CN(CC2CCCN(Cc3ccccc3)C2)C(=O)N4)ccn1 (stereo not drawn) [Example 208] too.
Data returned: < 6.00

Data request: Check Cc1cc(-c2n[nH]c3cc4c(cc23)CN([C@@H]2CN(C)C[C@H]2c2ccccc2F)C(=O)N4)cc(C)n1 (racemic) [Example 306] too.
Data returned: ≥ 6.60

Data request: Check Cn1cc(-c2n[nH]c3cc4c(cc23)CN([C@@H]2CN(CC(F)(F)F)C[C@H]2c2ccccc2)C(=O)N4)cn1 [Example 352] too.
Data returned: ≥ 6.60

Data request: Check Cc1cc(-c2n[nH]c3cc4c(cc23)CN([C@@H]2CCCN(Cc3cccc(Cl)c3)C2)C(=O)N4)ccn1 [Example 156] too.
Data returned: ≥ 6.60

Data request: Check Cc1ccc(-c2n[nH]c3cc4c(cc23)CN([C@@H]2CCCN(Cc3ccccc3)C2)C(=O)N4)cn1 [Example 275] too.
Data returned: ≥ 6.60

New cases:
Data request: Any idea what pIC50 was measured for Cc1cc(-c2n[nH]c3cc4c(cc23)CN([C@@H]2CCCN(Cc3cncnc3)C2)C(=O)N4)ccn1 [Example 166] ?
Data returned: < 6.00

Data request: Check Cc1ccc(-c2n[nH]c3cc4c(cc23)CN(Cc2cccc(Cl)c2)C(=O)N4)cn1 [Example 58] too.
Data returned: ≥ 6.60

Data request: Check Cc1cc(-c2n[nH]c3cc4[nH]c(=O)c(C5CCCN(Cc6ccccc6)C5)cc4cc23)ccn1 (stereo not drawn) [Example 332] too.
Data returned: ≥ 6.60

Data request: Check Cc1cc(-c2n[nH]c3cc4c(cc23)CN(CCC2CCOCC2)C(=O)N4)ccn1 [Example 220] too.
Data returned: ≥ 6.60

Data request: Check Cc1cc(-c2n[nH]c3cc4c(cc23)CN([C@@H]2CCCN(C(C)c3ccccc3)C2)C(=O)N4)ccn1 (stereo partly drawn) [Example 154] too.
Data returned: ≥ 6.60

Data request: Check C=C(c1ccccc1)c1cc2cc3c(-c4ccnc(C)c4)n[nH]c3cc2[nH]c1=O [Example 269] too.
Data returned: ≥ 6.60

Data request: Check O=C1Nc2cc3[nH]nc(CC4CCOCC4)c3cc2CN1[C@@H]1CN(CC(F)(F)F)C[C@H]1c1ccccc1 [Example 361] too.
Data returned: ≥ 6.60

Data request: Check Cc1cc(-c2n[nH]c3cc4c(cc23)CN([C@@H]2CCCN(Cc3sccc3F)C2)C(=O)N4)ccn1 [Example 291] too.
Data returned: ≥ 6.60

====

Tested on: A375 cells
Test: Tumor cell line proliferation assay (CellTiter Glo), A375
Format: cell-based
Settings: Homo sapiens, A-375, 96 h, read-out: A375 (V599E) Cell Proliferation IC50
Some compounds, each annotated with its measured IC50.

Before answering, review these 3 worked examples.
Data request: Any idea what IC50 was measured for Cc1cc(-c2n[nH]c3cc4c(cc23)CN([C@@H]2CCCN(C)C2)C(=O)N4)ccn1 ?
Data returned: > 1000 nM

Data request: Check Cc1cc(-c2n[nH]c3cc4[nH]c(=O)c(C(CO)c5ccccc5)cc4cc23)ccn1 (stereo not drawn) too.
Data returned: 250 to 1000 nM

Data request: Check Cc1cc(-c2n[nH]c3cc4c(cc23)CN([C@@H]2CN(C)C[C@H]2c2ccc(F)cc2)C(=O)N4)cc(C)n1 (racemic) too.
Data returned: ≤ 250 nM

New cases:
Data request: Any idea what IC50 was measured for COc1ncc(-c2n[nH]c3cc4c(cc23)CN([C@@H]2CCCN(Cc3ccccc3F)C2)C(=O)N4)cn1 ?
Data returned: ≤ 250 nM

Data request: Check Cc1cc(-c2n[nH]c3cc4c(cc23)CN([C@@H]2CN(C)C[C@H]2c2ccccc2)C(=O)N4)cc(C)n1 (racemic) too.
Data returned: ≤ 250 nM

Data request: Check Cc1cc(-c2n[nH]c3cc4c(cc23)CN([C@@H]2CCN(c3ccc(F)cn3)C2)C(=O)N4)ccn1 too.
Data returned: > 1000 nM

Data request: Check Cc1cc(-c2n[nH]c3cc4c(cc23)CN(C2(c3ccc(F)cc3)CC2)C(=O)N4)ccn1 too.
Data returned: > 1000 nM

Data request: Check Cc1cc(-c2n[nH]c3cc4c(cc23)CN(C2CCCCC2)C(=O)N4)ccn1 too.
Data returned: 250 to 1000 nM

====

Some compounds, each annotated with its measured IC50.
Tested on: A375 cells
Experiment: Tumor cell line proliferation assay (CellTiter Glo), A375
Type: cell-based
Conditions: Homo sapiens, A-375, 96 h, read-out: A375 (V599E) Cell Proliferation IC50

Data request: Find IC50 (A375 cells) for the entry O=C1Nc2cc3[nH]nc(-c4ccnnc4)c3cc2CN1[C@@H]1CCCN(Cc2ccccc2)C1
Data returned: 250 to 1000 nM

Data request: Check Cc1cc(-c2n[nH]c3cc4c(cc23)CN([C@H](CO)c2cccc(Cl)c2)C(=O)N4)ccn1 too.
Data returned: 250 to 1000 nM

New cases:
Data request: Find IC50 (A375 cells) for the entry Cc1cc(-c2n[nH]c3cc4c(cc23)CN([C@@H]2CN(CC(F)F)C[C@H]2c2ccccc2)C(=O)N4)ccn1 (mixture of isomers)
Data returned: ≤ 250 nM

Data request: Check Cc1cc(-c2n[nH]c3cc4c(cc23)CN([C@@H]2CCN(CC(F)(F)F)C2)C(=O)N4)ccn1 too.
Data returned: ≤ 250 nM

Data request: Check Cc1cc(-c2n[nH]c3cc4c(cc23)CN([C@@H]2CCN(Cc3ccccc3)C2)C(=O)N4)ccn1 too.
Data returned: ≤ 250 nM

Data request: Check COc1ncc(-c2n[nH]c3cc4c(cc23)CN(Cc2ccc(F)cc2F)C(=O)N4)cn1 too.
Data returned: 250 to 1000 nM

Data request: Check Cc1cc(-c2n[nH]c3cc4c(cc23)CN([C@@H]2CCCN(Cc3sccc3F)C2)C(=O)N4)ccn1 too.
Data returned: ≤ 250 nM

====

Tested on: phospho-p90 RSK (RSK1 Thr359/Ser363) in A375 (Braf V600E) cells
Assay: Phospho-p90 RSK ELISA using A375 (Braf V600E) cells
Assay type: cell-based
Settings: Homo sapiens, A-375, 2 hours compound treatment, read-out: Cellular Phospho-p90RSK IC50
pIC50: −log10 of the molar value.
Some compounds, each annotated with its measured pIC50.

Before answering, review these 5 worked examples.
Data request: Find pIC50 (phospho-p90 RSK (RSK1 Thr359/Ser363) in A375 (Braf V600E) cells) for the entry Cc1cc(-c2n[nH]c3cc4[nH]c(=O)c(C(C)c5ccccc5)cc4cc23)ccn1 (stereo not shown) [Example 22]
Data returned: ≥ 6.60

Data request: Check Cc1cc(-c2n[nH]c3cc4c(cc23)CN(CCN(C)C)C(=O)N4)ccn1 [Example 46] too.
Data returned: < 6.00

Data request: Check Cc1cc(-c2n[nH]c3cc4c(cc23)CN(CCNCc2ccc(F)cc2)C(=O)N4)ccn1 [Example 175] too.
Data returned: 6.00 to 6.60

Data request: Check Cc1cc(-c2n[nH]c3cc4c(cc23)CN([C@@H]2CCCN(c3cccc(C)n3)C2)C(=O)N4)ccn1 [Example 238] too.
Data returned: ≥ 6.60

Data request: Check Cc1cc(-c2n[nH]c3cc4c(cc23)CN(C2CCCCC2)C(=O)N4)ccn1 [Example 204] too.
Data returned: 6.00 to 6.60

New cases:
Data request: Find pIC50 (phospho-p90 RSK (RSK1 Thr359/Ser363) in A375 (Braf V600E) cells) for the entry Cc1cc(-c2n[nH]c3cc4c(cc23)CN([C@H]2CN(C(C)C)C[C@@H]2c2ccccc2)C(=O)N4)ccn1 [Example 296]
Data returned: < 6.00

Data request: Check Cn1nccc1-c1n[nH]c2cc3c(cc12)CN(Cc1cccc(Cl)c1)C(=O)N3 [Example 235] too.
Data returned: < 6.00

Data request: Check Cc1cc(-c2n[nH]c3cc4c(cc23)CN(Cc2ccccc2C(F)(F)F)C(=O)N4)ccn1 [Example 218] too.
Data returned: 6.00 to 6.60

Data request: Check COc1cccc(F)c1CN1CC[C@@H](N2Cc3cc4c(-c5ccnc(C)c5)n[nH]c4cc3NC2=O)C1 [Example 162] too.
Data returned: ≥ 6.60

Data request: Check Cc1cc(-c2n[nH]c3cc4c(cc23)CN([C@@H]2CCCN(Cc3ccc(F)c(Cl)c3)C2)C(=O)N4)ccn1 [Example 134] too.
Data returned: ≥ 6.60

Data request: Check COc1ncc(-c2n[nH]c3cc4c(cc23)CN([C@@H]2CCN(CC(F)(F)F)C2)C(=O)N4)cn1 [Example 276] too.
Data returned: ≥ 6.60

Data request: Check Cc1cc(-c2n[nH]c3cc4c(cc23)CN(C2CN(Cc3ccccc3)C2)C(=O)N4)ccn1 [Example 191] too.
Data returned: 6.00 to 6.60

Data request: Check COc1ncc(-c2n[nH]c3cc4c(cc23)CN(Cc2ccc(F)cc2)C(=O)N4)cn1 [Example 72] too.
Data returned: ≥ 6.60

Data request: Check Cc1cc(-c2n[nH]c3cc4c(cc23)CN([C@@H]2CCCNC2)C(=O)N4)ccn1 [Example 32] too.
Data returned: < 6.00

Data request: Check Cc1cc(-c2n[nH]c3cc4c(cc23)CN(Cc2ccc(F)cc2)C(=O)N4)ccn1 [Example 30] too.
Data returned: ≥ 6.60

Data request: Check COc1ncc(-c2n[nH]c3cc4c(cc23)CN([C@H](C)c2ccc(Cl)cc2)C(=O)N4)cn1 [Example 95] too.
Data returned: 6.00 to 6.60

Data request: Check CC(c1ccccc1)c1cc2cc3c(-c4ccc(=O)n(C)c4)n[nH]c3cc2[nH]c1=O (stereo not shown) [Example 347] too.
Data returned: ≥ 6.60

Data request: Check O=C1Nc2cc3[nH]nc(-c4cccnc4)c3cc2CN1[C@@H]1CN(CC(F)(F)F)C[C@H]1c1ccccc1 [Example 341] too.
Data returned: ≥ 6.60
